Hey, just so you know, these numbers are from patent US20160368895A1.

Biological target: human PGI2 receptors (hIP) (Homo sapiens, UniProt P43119)
Construct: expressed in transfected cells; host or cells: CHO-K1
Sequence (P43119 whole entry): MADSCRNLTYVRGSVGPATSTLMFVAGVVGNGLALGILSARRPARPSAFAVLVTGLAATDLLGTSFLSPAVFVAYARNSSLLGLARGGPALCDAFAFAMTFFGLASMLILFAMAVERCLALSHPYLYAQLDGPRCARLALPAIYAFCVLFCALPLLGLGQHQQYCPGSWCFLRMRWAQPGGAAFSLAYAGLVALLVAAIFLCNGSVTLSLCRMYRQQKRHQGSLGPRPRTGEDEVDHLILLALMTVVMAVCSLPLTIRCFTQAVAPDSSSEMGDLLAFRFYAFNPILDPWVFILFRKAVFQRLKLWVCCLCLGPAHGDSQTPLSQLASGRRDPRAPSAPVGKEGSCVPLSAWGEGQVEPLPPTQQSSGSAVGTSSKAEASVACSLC
Experiment: Method A: positive allosteric modulator activity, cAMP in CHO/hIP cells with 100 pM iloprost
Format: cell-based
Conditions: cAMP relative to 100 pM iloprost alone, test compound 5 uM
Measured T/C % accompanies every entry in the list below.
Supply the numeric figure in %, leaving out any unit text.

Some solved cases for reference:
# compound, subjectOfTest, T/C % (%)
records = [
    ("Cc1ccc(S(=O)(=O)Cn2nnnc2C(c2ccc(O)cc2)N2CCc3ccccc3C2)cc1 (centres unmarked)", "human PGI2 receptors (hIP) (Homo sapiens, UniProt P43119)", 104),
    ("CC(C)(C)n1nnnc1C(c1ccccc1)N1CCc2ccccc2C1 (centres unmarked) [drawing 104]", "human PGI2 receptors (hIP) (Homo sapiens, UniProt P43119)", 143),
    ("CC(C)(C)n1nnnc1C(c1ccc(Cl)cc1)N1CCc2ccccc2C1 (centres unmarked) [drawing 118]", "human PGI2 receptors (hIP) (Homo sapiens, UniProt P43119)", 113),
    ("Cc1ccc(C(c2nnnn2C(C)(C)C)N2CCc3ccccc3C2)cc1 (centres unmarked) [drawing 143]", "human PGI2 receptors (hIP) (Homo sapiens, UniProt P43119)", 112),
]

Documented T/C % of COc1ccc(C(c2nnnn2Cc2ccccc2)N2CCc3ccccc3C2)cc1OC (centres unmarked) : 90

###

Molecular target: human PGI2 receptors (hIP) (Homo sapiens, UniProt P43119)
Construct: expressed in transfected cells; host or cells: CHO-K1
Assay: Method A: positive allosteric modulator activity, cAMP in CHO/hIP cells with 100 pM iloprost
Type: cell-based
Details: cAMP relative to 100 pM iloprost alone, test compound 10 uM
propertyName: T/C % (%)
Supply the numeric figure in %, leaving out any unit text.

# molecule, propertyName, scaleUnit, readoutValue
rows = [
    ("COc1ccc(C(c2nnnn2CCc2ccccc2)N2CCc3ccccc3C2)cc1 (centres unmarked)", "T/C %", "%", 114),
]

Documented T/C % of c1ccc(CCn2nnnc2C(c2ccccc2)N2CCc3ccccc3C2)cc1 (centres unmarked) [drawing 142] : 111

Documented T/C % of COc1ccc(C(c2nnnn2C2CCCC2)N2CCc3ccccc3C2)cc1OC (centres unmarked) : 93

###

Measured log10 left shift value accompanies every entry in the list below.
Target: human PGI2 receptors (hIP) (Homo sapiens, UniProt P43119)
Construct: expressed in transfected cells; host or cells: CHO-K1
Experiment: Method C: effect on epoprostenol-cAMP production curve in CHO/hIP cells (left shift value)
Format: cell-based
Conditions: Table 4, concentration of test compound that halves the EC50 of epoprostenol
Please interpret these as log10 of left shift value where left shift value is in µM.

Documented log10 left shift value of COc1ccccc1C(c1nnnn1C1(C)CCCCC1)N1CCc2ccccc2C1 (stereo not drawn) : 0.30

Documented log10 left shift value of COc1ncccc1C(c1nnnn1C(C)(C)C)N1CCc2ccccc2C1 (stereo not drawn) : 1.25

Documented log10 left shift value of CC(C)(C)n1nnnc1C(c1ccccc1Cl)N1CCc2ccccc2C1 (stereo not drawn) : 0.86

Documented log10 left shift value of CC(C)(C)n1nnnc1C(c1ccccc1F)N1CCc2ccc(Cl)cc2C1 (stereo not drawn) : 2.37

Documented log10 left shift value of COc1cccc(OC)c1C(c1nnnn1C(C)(C)C)N1CCc2ccccc2C1 (stereo not drawn) : 1.85

Documented log10 left shift value of Cc1ccc2c(c1)CN(C(c1ccccc1C)c1nnnn1C(C)(C)C)CC2 (stereo not drawn) [Example 27] : 1.18

Documented log10 left shift value of CC(C)(C)n1nnnc1C(c1ccccc1)N1CCc2ccccc2C1 (stereo not drawn) : 1.09

Documented log10 left shift value of CC(C)(C)n1nnnc1C(c1ccccc1Br)N1CCc2ccccc2C1 (stereo not drawn) : 1.19

Documented log10 left shift value of Cc1ccccc1C(c1nnnn1C(C)(C)C)N1CCc2ccccc2C1 (stereo not drawn) [Example 25] : 0.74

###

Molecular target: human PGI2 receptors (hIP) (Homo sapiens)
Construct: expressed in transfected cells; host or cells: CHO-K1
Experiment: Method A: positive allosteric modulator activity, cAMP in CHO/hIP cells with 100 pM iloprost
Type: cell-based
Conditions: cAMP relative to 100 pM iloprost alone, test compound 10 uM
Experimental: The positive allosteric modulator activity of a test compound was measured as a change in the amount of intracellular cyclic AMP (cAMP) in the presence of 100 pM of the IP agonist iloprost (manufactured by CAYMAN CHEMICAL), using CHO-K1 cells (CHO/hIP cells) in which human PGI2 receptors (hIP) are stably expressed. […]
propertyName: T/C % (%)
Supply the numeric figure in %, leaving out any unit text.

Some solved cases for reference:
# compound, subjectOfTest, T/C % / %
records = [
    ("Cc1ccc(C(c2nnnn2Cc2ccccc2)N2CCc3ccccc3C2)cc1 (centres unmarked) [drawing 121]", "human PGI2 receptors (hIP) (Homo sapiens)", 112),
    ("CCC(C)(C)n1nnnc1C(c1ccccc1)N1CCc2ccccc2C1 (centres unmarked)", "human PGI2 receptors (hIP) (Homo sapiens)", 202),
    ("CCC(C)(C)n1nnnc1C(c1ccccc1OC)N1CCc2ccccc2C1 (centres unmarked)", "human PGI2 receptors (hIP) (Homo sapiens)", 215),
    ("COCCn1nnnc1C(c1ccc(OC)c(OC)c1)N1CCc2ccccc2C1 (centres unmarked)", "human PGI2 receptors (hIP) (Homo sapiens)", 98),
]

Shift focus to the following entry.
Documented T/C % of COc1ccc(C(c2nnnn2CCc2ccccc2)N2CCc3ccccc3C2)c(OC)c1 (centres unmarked) : 106

###

Target: human PGI2 receptors (hIP) (Homo sapiens, UniProt P43119)
Construct: expressed in transfected cells; host or cells: CHO-K1
Assay: Method A: positive allosteric modulator activity, cAMP in CHO/hIP cells with 100 pM iloprost
Type: cell-based
Conditions: cAMP relative to 100 pM iloprost alone, test compound 10 uM
Experimental: The positive allosteric modulator activity of a test compound was measured as a change in the amount of intracellular cyclic AMP (cAMP) in the presence of 100 pM of the IP agonist iloprost (manufactured by CAYMAN CHEMICAL), using CHO-K1 cells (CHO/hIP cells) in which human PGI2 receptors (hIP) are stably expressed. […]
propertyName: T/C % (%)
Supply the numeric figure in %, leaving out any unit text.

# molecule, scaleUnit, T/C %
rows = [
    ("Cc1ccc(Cn2nnnc2C(c2ccc(F)cc2)N2CCc3ccccc3C2)cc1 (stereo not drawn)", "%", 106),
    ("COCCn1nnnc1C(c1ccccc1OC)N1CCc2ccccc2C1 (stereo not drawn)", "%", 107),
    ("COCCn1nnnc1C(c1cc(OC)ccc1OC)N1CCc2ccccc2C1 (stereo not drawn)", "%", 90),
    ("COc1ccc(C(c2nnnn2Cc2ccccc2)N2CCc3ccccc3C2)c(OC)c1 (stereo not drawn)", "%", 103),
    ("Cc1ccc(C(c2nnnn2C2CCCCC2)N2CCc3ccccc3C2)cc1 (stereo not drawn)", "%", 100),
    ("COc1ccc(C(c2nnnn2CCc2ccccc2)N2CCc3ccccc3C2)cc1OC (stereo not drawn)", "%", 106),
]

Shift focus to the following entry.
// molecule CCC(C)(C)n1nnnc1C(c1ccc(OC)c(OC)c1)N1CCc2ccccc2C1 (stereo not drawn) , assay human PGI2 receptors (hIP) (Homo sapiens, UniProt P43119), T/C % value: 103

###

Measured T/C accompanies every entry in the list below.
Target: human PGI2 receptors (hIP) (Homo sapiens, UniProt P43119)
Construct: expressed in transfected cells; host or cells: CHO-K1
Experiment: Method B: positive allosteric modulator activity, cAMP in CHO/hIP cells with 1 nM epoprostenol
Type: cell-based
Conditions: cAMP relative to 1 nM epoprostenol alone, test concentration 10 uM
Supply the numeric figure in %, leaving out any unit text.

Some solved cases for reference:
# molecule, readoutValue
measured = [
    ("COc1cc2ccccc2cc1C(c1nnnn1C(C)(C)C)N1CCc2ccccc2C1 (stereo not shown)", 106.4),
    ("CC(C)(C)n1nnnc1C(C1=CC=CC1)N1CCc2ccccc2C1 (stereo not shown)", 186.2),
    ("CC(C)(C)n1nnnc1C(c1cc2ccccc2o1)N1CCc2ccccc2C1 (stereo not shown)", 105.0),
    ("CC(C)(C)n1nnnc1C(c1ccccc1N=O)N1CCc2ccc(Cl)cc2C1 (stereo not shown)", 94.1),
    ("CC(C)(C)n1nnnc1C1c2ccc(F)cc2SC2Cc3ccccc3CN21 (stereo not shown)", 127.6),
]

Documented T/C of CCOc1ccccc1C(C1=NNCN1C(C)(C)C)N1CCc2ccc(O)cc2C1 (stereo not shown) : 101.0

Documented T/C of CC(C)(C)n1nnnc1C(c1ccccc1Br)N1CCc2ccccc2C1 (stereo not shown) : 152.5

Documented T/C of CC(C)(C)n1nnnc1C(c1cc2ccccc2s1)N1CCc2ccccc2C1 (stereo not shown) : 104.7

Documented T/C of Cc1ccc2c(c1)CN(C(c1ccccc1C)c1nnnn1C(C)(C)C)CC2 (stereo not shown) : 116.3

Documented T/C of COc1ccccc1C(c1nnnn1C1(C)CCCC1)N1CCc2ccccc2C1 (stereo not shown) : 149.6

Documented T/C of COc1cc(F)ccc1C(c1nnnn1C(C)(C)C)N1CCc2ccccc2C1 (stereo not shown) : 147.0

Documented T/C of CC(C)(C)n1nnnc1C(c1ccoc1)N1CCc2ccccc2C1 (stereo not shown) : 145.9

Documented T/C of CC(C)(C)n1nnnc1C(C1=CCC=C1)N1CCc2ccccc2C1 (stereo not shown) : 153.8

Documented T/C of Cc1ccccc1C(c1nnnn1C1(C)CCCCC1)N1CCc2ccccc2C1 (stereo not shown) : 142.5

Documented T/C of CC(C)(C)n1nnnc1C(c1ccccc1)N1CCc2ccccc2C1 (stereo not shown) : 144.4

Documented T/C of CC(C)(C)n1nncc1C(c1ccc(C(F)(F)F)cc1)N1CCc2ccccc2C1 (stereo not shown) : 93.7

Documented T/C of CC(C)(C)n1nnnc1C(c1ccc[nH]1)N1CCc2ccccc2C1 (stereo not shown) : 121.8

Documented T/C of Cc1ccccc1C(c1nnnn1C(C)(C)C)N1CCc2ccccc2C1 (stereo not shown) [Example 25] : 177.2

Documented T/C of COc1cccc(C(c2nnnn2C(C)(C)C)N2CCc3ccccc3C2)c1 (stereo not shown) : 122.4
